test: release of N-0923 from the depot form, plasma level and bioavailability; assay type: in vivo; details: depot formulation according to the invention, read-out: bioavailability of the pharmaceutical composition according to the invention
assay.readout: bioavailability

q: For the compound CCCN(CCc1cccs1)[C@H]1CCc2c(O)cccc2C1 , what bioavailability is on record?
a: > 70%

Cited source: patent US8604076B2
